This collection of values is drawn from PubChem BioAssay (NCI).

Field: growth. Provide a value for each of the molecules that follow.
- Tested on: MDA-MB-231 breast
- Procedure Text: NCI-60 one-dose screen, 48 h (100 = growth as untreated, 0 = no growth, -100 = all killed)
- Test Context: 10 µM unless noted
This is part of a sample that, as a whole, favours compounds with a hit. Of some 83,000 tested, about 20% had one in any assay.
Answers are plain numbers, in %.

Please review the following examples before continuing.
- CCN1CCN(Cc2ccc(NC(=O)Nc3cccc(-n4ccc5c(NC(=O)c6ccccc6)nccc54)c3)cc2C(F)(F)F)CC1: 82
- COc1ccc(/C=C/C(=O)c2ccc(Oc3ncnc4ccccc34)cc2)cc1OC: 81.6
- CCN(CC)CCNC(=O)c1c(C)[nH]c(/C=C2\C(=O)Nc3cc(NC(=O)NC(=O)c4ccc(OC)cc4F)ccc32)c1C: 77.8

For each of the molecules below, state growth.
1. COc1cc(NC(C)CCCN2C(=O)c3ccccc3C2=O)c2nc(C)ccc2c1OC (stereo not given)
2. CN(C)c1ncc(C#Cc2c(F)cccc2F)c2ccccc12

Result:
78.3
80.2

---

- Test system: NCI-H522 lung
- Procedure Text: NCI-60 one-dose screen, 48 h
- Test Context: 10 µM unless noted
Compounds without any hit were thinned out: in the full panel of roughly 83,000, 20% have a hit. The source made the active and inactive calls. How the source made its calls: active means growth percent below 10; inactive means the rest.
// allowed return values: active, inactive

Worked set:
- CC(=O)c1cc2c(N)c(C(=O)Nc3cccc(Cl)c3)sc2nc1C: inactive
- NC(CCCC(N)C(=O)c1ccccc1)C(=O)O (stereo unspecified): inactive
- COc1cc(NC(C)CCCN2C(=O)c3ccccc3C2=O)c2nc(C)ccc2c1OC (stereo unspecified): inactive

Ask: Short answer needed: outcome of this test for CC1CCc2cc(F)cc3c(=O)c(C(=O)O)cn1c23 (stereo unspecified) ?
Result: inactive

---

- Tested on: RXF 393 renal
- Procedure Text: NCI-60 one-dose screen, 48 h (100 = growth as untreated, 0 = no growth, -100 = all killed)
- Test Context: 10 µM unless noted
The panel holds about 83,000 compounds, 20% with a hit somewhere; the sample as a whole holds those more often.
Please go through the items and note down their growth.
Numbers only, in %.

Record excerpt, results attached:
* COc1ccc(-c2ccc(NC(=O)Nc3ccc(Cl)c(C(F)(F)F)c3)c(C)n2)cc1 | 81.4
* c1ccc([Se]CCCN2CCN(CCC[Se]c3ccccc3)CC2)cc1 | 44.6
* COc1cc(NC(=O)C#Cc2ccccc2)c(OC)cc1Cl | 83.5

Here's the next entry for you.
Ask: Find the recorded growth belonging to COC1=C(OC)C(=O)C=CC1=O and report it.
Result: 114

---

- Test system: PC-3 prostate
- Procedure Text: NCI-60 one-dose screen, 48 h (100 = growth as untreated, 0 = no growth, -100 = all killed)
- Test Context: 10 µM unless noted
Compounds without any hit were thinned out: in the full panel of roughly 83,000, 20% have a hit.
The label depends only on growth: Fulfilled if it is at least 90%, Not fulfilled if it is smaller.

Solved cases below.
• COc1ccc(CCNC=O)cc1OC = Fulfilled
• ClC1c2ccccc2CCc2ccccc21 = Not fulfilled
• NC(=O)C1=C[C@H]2[C@H]3C=C[C@@]2(O)C(=O)O[C@@H]3O1 = Not fulfilled

Consider the record given below.
Ask: Hello, I need to know if Cc1cc(NC(=O)c2cccc(C(F)(F)F)c2)ccc1-n1ccc2c(NC(=O)c3ccccc3)nccc21 has measured growth not below 90%. Thanks!
Result: Not fulfilled
